target: T1, TtSlyDcas
T1 construct: negative control scaffold without the HER3 β-hairpin
T1 chain: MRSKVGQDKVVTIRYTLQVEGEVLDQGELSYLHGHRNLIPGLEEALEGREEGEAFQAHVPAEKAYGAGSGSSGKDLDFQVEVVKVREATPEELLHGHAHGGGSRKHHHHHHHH
method.description: ELISA, antigen coated, hybridoma supernatant
reported.endpoint: OD 405 nm (OD)
The reply should contain only the number, in OD.

Would you please look over these solved cases?
>  <binder>
anti-HER3 antibody M-17-02 (antibody, V domains shown, mouse hybridoma clone) VH: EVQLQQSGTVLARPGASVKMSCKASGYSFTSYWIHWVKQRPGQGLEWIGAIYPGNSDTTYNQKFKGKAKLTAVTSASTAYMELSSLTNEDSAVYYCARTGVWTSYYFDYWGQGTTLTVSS VL: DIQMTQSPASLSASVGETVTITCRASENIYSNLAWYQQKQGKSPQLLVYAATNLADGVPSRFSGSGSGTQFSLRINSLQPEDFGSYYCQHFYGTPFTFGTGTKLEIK

>  <OD 405 nm (OD)>
0.023

$$$$
>  <binder>
anti-HER3 antibody M-17-12 (antibody, V domains shown, mouse hybridoma clone; VH and VL stated identical to those of M-17-02) VH: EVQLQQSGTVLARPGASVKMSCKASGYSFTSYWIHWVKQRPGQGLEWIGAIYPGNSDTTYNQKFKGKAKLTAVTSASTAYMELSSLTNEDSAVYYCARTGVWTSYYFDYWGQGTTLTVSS VL: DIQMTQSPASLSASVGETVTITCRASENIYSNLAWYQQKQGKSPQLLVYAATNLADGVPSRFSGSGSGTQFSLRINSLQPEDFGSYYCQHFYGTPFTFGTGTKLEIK

>  <OD 405 nm (OD)>
0.022

$$$$

Field: next binder
query: Data request, read-out OD 405 nm, for anti-HER3 antibody M-43-01 (antibody, V domains shown, mouse hybridoma clone) VH: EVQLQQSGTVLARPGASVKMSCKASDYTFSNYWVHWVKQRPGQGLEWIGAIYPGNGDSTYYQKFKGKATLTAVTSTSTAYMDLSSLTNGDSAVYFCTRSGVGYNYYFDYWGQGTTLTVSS VL: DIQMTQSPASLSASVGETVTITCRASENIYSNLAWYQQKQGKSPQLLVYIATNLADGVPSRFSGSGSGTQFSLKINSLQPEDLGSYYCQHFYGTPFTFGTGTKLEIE
result: 0.018
